I'd be grateful if you could share measured TGI for these entries.
- System: SF-268 CNS
- Method Description: NCI tumour cell line growth inhibition, 48 h

Consider the compound O=C1C=CC(=O)N1Nc1ccc([N+](=O)[O-])cc1[N+](=O)[O-] and give its recorded TGI.
> 100 µM

Dear colleague, could you send me TGI for each of the items below? Thanks.
1. Cc1ncc(C(=O)Nc2ccc(CN3CCN(C)CC3)c(C(F)(F)F)c2)cc1C#Cc1cnc(NC2CC2)c2ncccc12
2. COc1ccc(CC(O)CN2CCOCC2)cc1 (centres undefined)
3. CC(=O)[CH-]C(C)=O.[CH2-]C.[CH2-]C.[Tl+3]
4. CNC(=O)c1cc2c(Oc3ccc(NC(=O)C4(C(=O)Nc5ccc(F)cc5)CC4)cc3)ccnc2cc1OC
5. CC(=O)N(C(C)=O)C1=C2c3ccccc3N(S(=O)(=O)c3ccccc3)C2n2c(=O)n(-c3ccccc3)c(=O)n2C1 (centres undefined)
6. O=C(/C=C/c1ccsc1)c1ccsc1
7. c1ccc(Cn2cnc3ccc(-c4nc(-c5ccc6c(c5)ncn6C5CCCCC5)cn5ccnc45)cc32)cc1
8. COc1ccccc1-c1cc(=O)c2ccc(C)nc2[nH]1

["1.48 µM", "> 100 µM", "> 100 µM", "> 100 µM", "> 100 µM", "> 100 µM", "> 100 µM", "> 100 µM"]

For each of the items listed, what is its TGI?
1. CC(=O)N[C@H](C(=O)N[C@@H](CCCNC(=N)N)C(=O)N[C@@H](CCCCN)C(=O)N[C@@H](CCCNC(=N)N)C(=O)N[C@]1(C)CCCCCC/C=C\CCC[C@@](C)(C(=O)N[C@@H](CCCNC(=N)N)C(=O)N[C@@H](CCC(=O)O)C(=O)N[C@@H](CC(C)C)C(=O)N[C@H](C(=O)N[C@@H](CCC(=O)O)C(N)=O)C(C)C)NC(=O)[C@H](CCC(N)=O)NC(=O)[C@H](CC(C)C)NC(=O)[C@H](CC(C)C)NC(=O)[C@H](CCCNC(=N)N)NC(=O)[C@H](CCCNC(=N)N)NC(=O)[C@H](CC(C)C)NC1=O)C(C)C
2. Oc1ccccc1/C=N/c1nc2cc3sc(/N=C/c4ccccc4O)nc3cc2s1
3. O=[N+]([O-])/C(C(Cl)=C(Cl)Cl)=C(\Nc1cccc2cccnc12)SCc1ccccc1

4.58 µM
> 100 µM
42.3 µM

----------
What GI50 was measured for each of the following?
- Tested on: EKVX NSCLC
- Method Description: NCI tumour cell line growth inhibition, 48 h

Look up and report measured GI50 for this entry: Cc1ncc(C(=O)Nc2ccc(CN3CCN(C)CC3)c(C(F)(F)F)c2)cc1C#Cc1cnc(NC2CC2)c2ncccc12
659 nM

Please report the measured GI50 for OB1OCc2cc(/C=C/c3cccc(C(F)(F)F)c3)ccc21
3650 nM

In the following, a different compound is considered.
Give the reported value of GI50 for this record: C[C@H]1[C@H](C)CC[C@]2(C(=O)NCCNCCN)CC[C@]3(C)C(=CC[C@@H]4[C@@]5(C)CCC(=O)C(C)(C)[C@@H]5CC[C@]43C)[C@H]12
1580 nM

----------
- Test system: MDA-MB-435
- Method Description: NCI tumour cell line growth inhibition, 48 h
What TGI was measured for each of the following?
Answers are plain numbers, in µM.

Would you please look over these solved cases?
Hello, please tell me recorded TGI for this one: O=C(NCCCN(CCCCN(CCCNC(=O)C(F)(F)F)Cc1ccccc1)Cc1ccccc1)C(F)(F)F
33.9

In one line, give reported TGI of the entry O=C(/C=C/c1ccsc1)c1ccsc1 .
42.4

Consider the compound Cc1ncc(C(=O)Nc2ccc(CN3CCN(C)CC3)c(C(F)(F)F)c2)cc1C#Cc1cnc(NC2CC2)c2ncccc12 . State its measured TGI.
0.963

Quick one: give measured TGI for C=CCO/N=C/c1cc(NC(=S)c2ccoc2C)ccc1Cl
54.4

Identify TGI associated with the compound Brc1cccc(Nc2nc(-c3cccs3)nc3ccc(Br)cc23)c1
37.2

Provide one value: measured TGI of O=C(CCCN1CCC2(CC1)CC(=O)N(N1CCOCC1)C2=O)c1ccccc1
35.4

Below are 6 compounds. Give each one its TGI.
1. O=C(N=Nc1cc(Cl)ccc1Cl)NNc1cc(Cl)ccc1Cl
2. O=C1C(SCCO)=C(SCCO)C(=O)c2ccccc21
3. O=C1c2cccnc2-c2nc(-c3ccncc3)cc3c2c1nc1ccccc13
4. O=C1C(Cl)=C(Nc2ccccc2)C(=O)c2ccccc21
5. Cc1csc(-c2cn(C)c3c2C(=O)C(N)=CC3=O)n1
6. CC1(C)[C@@H]2CC[C@@]1(C)[C@@H]1O[C@@H](O[C@@H](CN)c3cc(Cl)c(OCc4ccccc4)c(OCc4ccccc4)c3)C[C@H]21

1. 30
2. 0.348
3. 30.1
4. 3.27
5. 15.3
6. 0.297

Give one value of TGI per listed compound.
1. OC(c1ccc(Br)cc1)(c1cccs1)C1CC1 (configuration not stated)
2. CCCNC(=O)CCC(C)[C@H]1CCC2C3C(C[C@H](OC(C)=O)[C@@]21C)[C@@]1(C)CCC2(C[C@H]1C[C@H]3OC(C)=O)OOC1(CCC(C)CC1)OO2 (some centres not stated)

36.1
39.5

----------
- System: UO-31 renal
- Method Description: NCI tumour cell line growth inhibition, 48 h
For each of the compounds below, state its GI50.

Worked cases, GI50 given:
Please look at this compound and report its GI50: CC1CCCc2c1nn(C(=O)/C=C(\N)c1ccccc1)c2N (centres undefined)
3.92 µM

State, in one line, measured GI50 of O=C(O)CCC(NC(=S)S)C(=O)O.[Na+].[Zn+2] (centres undefined)
> 50 µM

Can you give me GI50 for all of these, one by one?
1. CCOC1Oc2ccccc2-c2oc(=O)c(Sc3ccc(C)cc3)cc21 (centres undefined)
2. C[C@H]1[C@H](C)CC[C@]2(C(=O)NCCNCCN)CC[C@]3(C)C(=CC[C@@H]4[C@@]5(C)CCC(=O)C(C)(C)[C@@H]5CC[C@]43C)[C@H]12

1. 16.4 µM
2. 1.53 µM

Batch: GI50 for all items listed.
1. CN(C)Cc1c[nH]c2c(NCCN)c3c(c(NCCN)c12)C(=O)c1ccccc1C3=O
2. Cc1cc(Nc2nc(SCc3ccc(C(=O)Nc4ccc(F)cc4N)cc3)nn3cccc23)n[nH]1
3. CC(=O)[O-].CC(=O)[O-].CC(=O)[O-].CC(=O)[O-].[Mo+2].[Mo+2]

1. 8.58 µM
2. 1.33 µM
3. > 100 µM

----------
Field: TGI. Provide a value for each of the compounds that follow.
- Test system: HOP-92 NSCLC
- Method Description: NCI tumour cell line growth inhibition, 48 h

Let me know recorded TGI for CCN(CC)CCOc1ccc(N2C(=O)c3cc(OC)c(OC)cc3C2=O)cc1 , thanks.
> 100 µM

Using the record for C=CCSc1nc2ccccc2c(=O)n1Cc1ccco1 , state its measured TGI.
> 100 µM

Hello, please tell me recorded TGI for this one: CC1(C)OC2COC3(CNO)OC(C)(C)OC3C2O1 (centres undefined)
> 100 µM

Others:
Please indicate TGI recorded for O=C(O)CCC(NC(=S)S)C(=O)O.[Na+].[Zn+2] (centres undefined)
> 50 µM

----------
- Tested on: OVCAR-4 ovarian
- Method Description: NCI tumour cell line growth inhibition, 48 h
Would you mind telling me the reported TGI of each entry?

Recorded TGI, per entry:
Specify measured TGI for CC1(C)N=C(C(N)=O)c2ncn(CCCO)c2N1 .
> 100 µM

Hello, please tell me recorded TGI for this one: COC(=O)c1c2c(cc3c1CC1(C3)Cc3cc4c(c(C(=O)OC)c3C1)CCCC4)CCCC2
> 100 µM

Identify TGI associated with the compound CSc1c(C#N)c(N)n2c1C(=O)N(c1ccccc1)C2=S
69.7 µM

Output measured TGI for this item: CC1(C)OC2COC3(CNO)OC(C)(C)OC3C2O1 (stereo unspecified)
> 100 µM

Provide the reported TGI of each entry below, same order.
1. CN(C)c1nc(=NCc2ccccc2)ss1
2. C[n+]1c2ccccc2cc2c(CNC(CCCN=C(N)N)C(=O)O)cccc21 (stereo unspecified)
3. Cc1ccccc1C(O)(c1nccn1C)c1nccn1C
4. C#CCC(N)(CO)C(=O)O (stereo unspecified)
5. CC1(c2ccccc2)CC(c2ccccc2)=NO1 (stereo unspecified)
6. COc1cccc(/C=C2\CCC(C)(CN(C)C)C2=O)c1 (stereo unspecified)
7. Cc1ccc2c(c1)Sc1ccc(N=NN(C)C)cc1N2C

["> 10 µM", "23.9 µM", "> 100 µM", "> 100 µM", "> 100 µM", "> 100 µM", "> 100 µM"]

----------
- Test system: A498 renal
- Method Description: NCI tumour cell line growth inhibition, 48 h
Observation Type: GI50

Specify reported GI50 for the compound shown: O=C(c1ccc2ccccc2c1)c1c(C(F)(F)F)n([O-])c2ccc(Cl)cc2[n+]1=O
1.72 µM

Tell us which GI50 value is on record for CC1CCCc2c1nn(C(=O)/C=C(\N)c1ccccc1)c2N (stereo not drawn)
9.64 µM

Okay, now this compound:
Output measured GI50 for this item: O=C(O)CCC(NC(=S)S)C(=O)O.[Na+].[Zn+2] (stereo not drawn)
> 50 µM
